- Test system: NO release of LPS-induced microglial N9 cells
- TEST PROTOCOL: Inhibition of NO release in LPS-induced N9 cells (Griess)
- Format: cell-based, murine
- CONDITION INFO: Mus musculus, 1 μg/mL LPS for 48 h, NO level in medium
METRIC: IC50 (nM)
Return type: number; implicit unit nM.

Challenge: Consider the compound `Cc1cccc2c(OCc3cn(CCO[C@H]4O[C@@H]5O[C@@]6(C)CC[C@H]7[C@H](C)CC[C@@H]([C@H]4C)[C@@]57OO6)nn3)cc(=O)oc12` and give its measured IC50.
Response given: 570

Challenge: Try this compound too: `C[C@H]1[C@@H](OCc2cn(Cc3cc4cc(Br)cc(Br)c4oc3=O)nn2)O[C@@H]2O[C@@]3(C)CC[C@H]4[C@H](C)CC[C@@H]1[C@@]24OO3`
Response given: 480

Challenge: Try this compound too: `C[C@H]1[C@@H](OCc2cn(Cc3cc4cc(Cl)cc(Cl)c4oc3=O)nn2)O[C@@H]2O[C@@]3(C)CC[C@H]4[C@H](C)CC[C@@H]1[C@@]24OO3`
Response given: 1600

Challenge: Check `Cc1ccc2c(OCc3cn(CCCO[C@H]4O[C@@H]5O[C@@]6(C)CC[C@H]7[C@H](C)CC[C@@H]([C@H]4C)[C@@]57OO6)nn3)cc(=O)oc2c1C` too.
Response given: 1130

Challenge: Also `Cc1cccc2c(OCc3cn(CCCO[C@H]4O[C@@H]5O[C@@]6(C)CC[C@H]7[C@H](C)CC[C@@H]([C@H]4C)[C@@]57OO6)nn3)cc(=O)oc12` ?
Response given: 1430

Challenge: What about this compound? `Cc1ccc2c(OCc3cn(CCO[C@H]4O[C@@H]5O[C@@]6(C)CC[C@H]7[C@H](C)CC[C@@H]([C@H]4C)[C@@]57OO6)nn3)cc(=O)oc2c1C`
Response given: 220

Challenge: What about `Cc1ccc2c(OCc3cn(CCCO[C@H]4O[C@@H]5O[C@@]6(C)CC[C@H]7[C@H](C)CC[C@@H]([C@H]4C)[C@@]57OO6)nn3)cc(=O)oc2c1` ?
Response given: 1910

Challenge: C[C@H]1[C@@H](O)O[C@@H]2O[C@@]3(C)CC[C@H]4[C@H](C)CC[C@@H]1[C@@]24OO3 [DHA, Dihydroartemisinin] ?
Response given: 1580

Challenge: Next: `Cc1cc(C)c2c(Cn3cc(CCO[C@H]4O[C@@H]5O[C@@]6(C)CC[C@H]7[C@H](C)CC[C@@H]([C@H]4C)[C@@]57OO6)nn3)cc(=O)oc2c1`
Response given: 1360

Challenge: Entry `Cc1cc(C)c2c(OCc3cn(CCCO[C@H]4O[C@@H]5O[C@@]6(C)CC[C@H]7[C@H](C)CC[C@@H]([C@H]4C)[C@@]57OO6)nn3)cc(=O)oc2c1` please
Response given: 520
